Assay: Pharmacokinetic study in rats
Assay type: in vivo
Details: rat; male SD rats, oral intragastric administration, 10 mg/kg, plasma
RECORDED_ENDPOINT: AUC(0-t) (µM·h)
Give the quantity in µM·h, number only.

# query: AUC(0-t) of entry COc1cc(C)c2[nH]ccc2c1CN1CCC2CC1(c1ccc(C(=O)O)cc1)CCN2CC(F)(F)F (stereo not shown) [Compound 2]
14.7
